# assay_text: AUClast in sc dosed C57BL/6 mouse by LC-MS/MS analysis
# Type: ADME, organism-based
# Design: route subcutaneous, time 0 - last
# setup_conditions: in vivo
assay_endpoint: AUC(0-t) (ng·h/mL)
Write it as a number; the unit ng·h/mL goes unstated.

// query Dear colleague, I am looking for the recorded AUC(0-t) of the following molecule: C[C@@H]1CN(C(=O)[C@H](C)N2CCC(n3c(=O)[nH]c4ccccc43)CC2)C[C@@H](C)N1
// result 7990

====

# assay_text: Drug concentration in sc dosed C57BL/6 mouse brain measured after 60 mins by LC-FTICR-MS analysis
# Type: ADME, organism-based
# setup_conditions: read-out: Ct
assay_endpoint: concentration at 1 h (ng/g)
Please reply with the bare figure in ng/g and do not write the unit itself.

// query # get_value(readout='concentration at 1 h', item= C[C@@H]1CN(C(=O)[C@H](C)N2CCC(n3c(=O)[nH]c4ccccc43)CC2)C[C@@H](C)N1 )
// result 117

====

# assay_text: Drug concentration in sc dosed C57BL/6 mouse liver measured after 30 mins by LC-FTICR-MS analysis
# Assay type: ADME, organism-based
# setup_conditions: read-out: Ct
assay_endpoint: concentration at 0.5 h
Remember to quote the unit after the number.

// query Item under review: C[C@@H]1CN(C(=O)[C@H](C)N2CCC(n3c(=O)[nH]c4ccccc43)CC2)C[C@@H](C)N1 . Reported concentration at 0.5 h?
// result 7160 ng/g

====

# Test system: MDR1 (P-gp)
# assay_text: Efflux ratio of apparent permeability from basolateral to apical side over apical to basolateral side in dog MDCK-MDR1 cells
# Type: ADME, cell-based, Canis lupus familiaris
assay_endpoint: efflux ratio
Reply: number alone, nothing else.

- test_smiles: "C[C@@H](CN1CCC2(CC1)OC(=O)Nc1cccnc12)NC(=O)c1ccc(F)cc1"
  efflux ratio: 68
- test_smiles: "C[C@@H](C(=O)N1CCC(F)(F)C1)N1CCC(n2c(=O)[nH]c3ccccc32)CC1"
  efflux ratio: 2.5
- test_smiles: "C[C@@H](CN1CCC2(CC1)NC(=O)Nc1ccccc12)NC(=O)c1ccc(F)cc1"
  efflux ratio: 67

// query Name the reported efflux ratio value associated with the compound C[C@@H]1CN(C(=O)[C@H](C)N2CCC(n3c(=O)[nH]c4ccccc43)CC2)C[C@H](C)N1
// result 14

====

# system_tested: Cytochrome P450 3A4 (Homo sapiens, UniProt P08684)
# Sequence (P08684 whole entry): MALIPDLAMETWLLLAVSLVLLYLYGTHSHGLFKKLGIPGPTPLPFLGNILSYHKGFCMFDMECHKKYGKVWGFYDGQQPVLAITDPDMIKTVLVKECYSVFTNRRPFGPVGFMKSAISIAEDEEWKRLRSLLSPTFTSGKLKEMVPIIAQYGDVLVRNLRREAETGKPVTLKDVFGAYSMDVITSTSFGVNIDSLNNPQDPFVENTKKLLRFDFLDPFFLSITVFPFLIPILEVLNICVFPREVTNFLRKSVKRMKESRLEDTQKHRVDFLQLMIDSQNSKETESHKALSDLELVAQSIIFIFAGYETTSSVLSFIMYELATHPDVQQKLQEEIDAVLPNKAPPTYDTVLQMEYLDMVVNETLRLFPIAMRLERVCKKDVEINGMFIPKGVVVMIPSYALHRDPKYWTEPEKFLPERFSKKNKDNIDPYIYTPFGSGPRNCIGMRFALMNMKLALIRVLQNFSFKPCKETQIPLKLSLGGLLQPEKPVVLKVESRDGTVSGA
pIC50: −log10 of the molar value.
assay_endpoint: pIC50

// query Record C[C@@H]1CN(C(=O)[C@H](C)N2CCC(n3c(=O)[nH]c4ccccc43)CC2)C[C@@H](C)N1 : what is its pIC50 with Cytochrome P450 3A4 (Homo sapiens, UniProt P08684)?
// result < 5.00

====

# assay_text: Clearance in iv dosed rat administered as cassette dose
# Type: ADME, organism-based
# setup_conditions: in vivo
assay_endpoint: clearance (mL/min/kg)
Kindly provide the numeric value in mL/min/kg only, without the unit symbol.

The cases that follow already have their clearance on record.
- test_smiles: "C[C@@H](CN1CCC2(CC1)CC(=O)Nc1ccccc12)NC(=O)c1ccc(F)cc1"
  assay_endpoint: "clearance"
  measured_value: 8.6
- test_smiles: "C[C@@H](CN1CCC2(CC1)OC(=O)Nc1cccnc12)NC(=O)c1ccc(F)cc1"
  assay_endpoint: "clearance"
  measured_value: 40
- test_smiles: "C[C@@H](C(=O)N1CCNC(C)(C)C1)N1CCC(n2c(=O)[nH]c3ccccc32)CC1"
  assay_endpoint: "clearance"
  measured_value: 39
- test_smiles: "C[C@@H]1CN(C(=O)[C@H](C)N2CCC(n3c(=O)[nH]c4ccccc43)CC2)C[C@@H](C)N1"
  assay_endpoint: "clearance"
  measured_value: 28

As a next step, examine the molecule that follows.
// query Given C[C@@H](CN1CCC2(CC1)OC(=O)NC[C@H]2c1cccc(F)c1)NC(=O)c1ccc(F)cc1 , state its recorded clearance.
// result 119
